The values you see were collected from patent US9796753B2.

System: prostate DU-145
Experiment: COMPARE screening (NCI human cancer cell line screen), cytotoxicity GI50
Assay type: cell-based
Details: Homo sapiens, DU-145, read-out: cytotoxicity (GI50) prostate DU-145
readoutLabel: GI50 (µM)
Answer format: numeric, µM implied, no suffix.

Memo: O=C1c2ccccc2-c2c1c1ccc([N+](=O)[O-])cc1c(=O)n2CCN1CCOCC1 , reported GI50: 61.7

Memo: Cl.NCCCCCn1c2c(c3ccccc3c1=O)C(=O)c1ccccc1-2 [Compound 5ao, Hydrochloride] , reported GI50: 0.347

Memo: O=C1c2ccccc2-c2c1c1ccccc1c(=O)n2Cc1ccccn1 , reported GI50: 13.5
